Hey, just so you know, these numbers are from a collection of fitness landscapes (doi:10.1016/j.celrep.2020.107928).

B1: Caulobacter ParB omega fusion; a variant is named by its letters at X, in order, B8GW30 (parent)
chain: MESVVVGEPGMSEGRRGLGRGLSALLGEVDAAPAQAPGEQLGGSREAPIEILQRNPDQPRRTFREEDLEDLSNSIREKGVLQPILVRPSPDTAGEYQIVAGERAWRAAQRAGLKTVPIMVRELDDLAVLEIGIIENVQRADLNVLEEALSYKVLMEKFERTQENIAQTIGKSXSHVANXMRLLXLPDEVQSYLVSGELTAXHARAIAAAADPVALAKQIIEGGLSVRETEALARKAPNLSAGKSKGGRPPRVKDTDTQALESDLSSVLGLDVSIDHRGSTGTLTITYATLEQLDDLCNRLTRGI

Variants of: B1
Test: one-hybrid fitness for binding NBS DNA (the Noc-binding site; scaled: cognate 1, non-cognate 0); higher = stronger binding
Settings: with NBS DNA site
Over roughly 81,000 sequences, “one-hybrid fitness for binding NBS DNA” has its median near -0.1; the highest 2% begin near 0.36. Only a selection was taken, and the highest values are over-represented in it overall.
Answer each item with its documented one-hybrid fitness for binding NBS DNA.

Param item = SEFT ; retrieve measured one-hybrid fitness for binding NBS DNA.
≤ 0.2

Param item = ITGG ; retrieve measured one-hybrid fitness for binding NBS DNA.
≤ 0.2

Param item = QPKG ; retrieve measured one-hybrid fitness for binding NBS DNA.
≤ 0.2
